Listing of entries alongside the reported inhibition of PMA-induced release of HB-EGF from U-937 cells.
Molecular target: T1, human iRhom2 (inactive rhomboid protein 2, isoform 1), endogenously expressed on human cells (human, UniProt Q6PJF5 1-856); note: test concentration or dose not given here
T1 sequence: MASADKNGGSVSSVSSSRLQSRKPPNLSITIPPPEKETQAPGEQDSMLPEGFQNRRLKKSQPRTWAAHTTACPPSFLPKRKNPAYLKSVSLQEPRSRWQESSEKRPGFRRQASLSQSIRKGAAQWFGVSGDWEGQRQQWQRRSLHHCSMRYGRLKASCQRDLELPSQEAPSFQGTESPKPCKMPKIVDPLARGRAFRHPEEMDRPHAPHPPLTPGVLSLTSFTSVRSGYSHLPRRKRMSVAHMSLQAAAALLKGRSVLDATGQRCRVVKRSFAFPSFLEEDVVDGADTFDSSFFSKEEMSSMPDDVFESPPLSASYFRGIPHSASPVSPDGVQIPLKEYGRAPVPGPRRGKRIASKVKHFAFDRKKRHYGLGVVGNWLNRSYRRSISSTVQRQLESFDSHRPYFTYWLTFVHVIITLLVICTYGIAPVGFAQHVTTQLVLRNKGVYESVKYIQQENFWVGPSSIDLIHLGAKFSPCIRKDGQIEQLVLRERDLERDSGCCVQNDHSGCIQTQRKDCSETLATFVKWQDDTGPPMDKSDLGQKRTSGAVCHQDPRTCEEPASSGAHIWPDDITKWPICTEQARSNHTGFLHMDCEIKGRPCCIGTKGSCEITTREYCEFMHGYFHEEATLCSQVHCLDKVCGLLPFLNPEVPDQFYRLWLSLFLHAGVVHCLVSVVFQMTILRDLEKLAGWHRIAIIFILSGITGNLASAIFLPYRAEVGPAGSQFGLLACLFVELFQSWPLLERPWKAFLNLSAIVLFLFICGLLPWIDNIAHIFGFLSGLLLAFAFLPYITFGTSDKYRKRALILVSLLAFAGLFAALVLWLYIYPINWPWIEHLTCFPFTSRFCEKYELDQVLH
Test: cell-based or functional assay
Report the figure in % inhibition without appending any unit label.

Value of measured inhibition of PMA-induced release of HB-EGF from U-937 cells for the entry antibody 34 (antibody, V domains shown, Mouse IgG, kappa light chain; also called clone #34; m34) VH: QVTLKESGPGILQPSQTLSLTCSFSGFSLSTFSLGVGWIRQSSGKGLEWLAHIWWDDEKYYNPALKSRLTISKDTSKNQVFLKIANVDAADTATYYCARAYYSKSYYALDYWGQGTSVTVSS VL: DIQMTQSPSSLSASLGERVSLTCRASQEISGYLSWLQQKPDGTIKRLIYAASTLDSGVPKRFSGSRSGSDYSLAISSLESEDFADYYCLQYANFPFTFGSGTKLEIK : 98.2

Value of measured inhibition of PMA-induced release of HB-EGF from U-937 cells for the entry chimeric version of antibody 34 (antibody, V domains shown) VH: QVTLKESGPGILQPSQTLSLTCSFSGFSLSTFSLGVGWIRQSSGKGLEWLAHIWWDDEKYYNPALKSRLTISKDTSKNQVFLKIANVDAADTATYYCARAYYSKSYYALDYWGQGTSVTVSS VL: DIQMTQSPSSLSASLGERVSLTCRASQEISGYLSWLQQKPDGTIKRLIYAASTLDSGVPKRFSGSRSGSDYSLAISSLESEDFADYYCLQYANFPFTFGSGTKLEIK : 98.1

Value of measured inhibition of PMA-induced release of HB-EGF from U-937 cells for the entry chimeric version of antibody 16 (antibody, V domains shown, Chimeric version made in CHO cells, detected with anti-human IgG; the variable domains are those of clone #16; also called ch16) VH: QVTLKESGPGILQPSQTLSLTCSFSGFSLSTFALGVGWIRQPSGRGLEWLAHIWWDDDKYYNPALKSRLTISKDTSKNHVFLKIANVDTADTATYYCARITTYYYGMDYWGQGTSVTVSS VL: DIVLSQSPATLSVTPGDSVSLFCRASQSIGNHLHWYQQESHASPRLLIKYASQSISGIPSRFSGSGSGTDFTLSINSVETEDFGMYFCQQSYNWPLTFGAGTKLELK : 101
